Entries and their EC90 values follow.
Target: Nonstructural protein 5A (Hepatitis C virus)
Sequence (whole entry): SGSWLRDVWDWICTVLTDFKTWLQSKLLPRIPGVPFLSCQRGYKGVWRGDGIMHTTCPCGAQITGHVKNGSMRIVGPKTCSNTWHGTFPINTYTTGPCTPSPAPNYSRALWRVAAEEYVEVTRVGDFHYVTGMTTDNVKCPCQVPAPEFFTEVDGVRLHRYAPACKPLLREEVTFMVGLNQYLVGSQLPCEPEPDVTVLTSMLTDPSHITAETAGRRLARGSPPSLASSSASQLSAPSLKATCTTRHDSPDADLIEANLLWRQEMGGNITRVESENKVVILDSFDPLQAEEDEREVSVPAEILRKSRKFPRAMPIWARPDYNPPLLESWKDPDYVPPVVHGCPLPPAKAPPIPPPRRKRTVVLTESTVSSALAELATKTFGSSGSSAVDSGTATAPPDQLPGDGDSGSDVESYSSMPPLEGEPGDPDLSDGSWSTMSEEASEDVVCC
Experiment: Inhibition of HCV GT2b NS5A assessed as suppression of replicon RNA level by real-time PCR analysis
Conditions: Hepatitis C virus subtype 2b
Answer with a number only, understood to be in nM.

Some compounds with known EC90 results, for comparison:
>>> recorded_measurement("COC(=O)N[C@H](C(=O)N1CCC[C@H]1c1ncc(-c2ccc3c(c2)OCn2c-3c(Cc3ccccc3)c3cc(-c4cnc([C@@H]5CCCN5C(=O)[C@@H](NC(=O)OC)C(C)C)[nH]4)ccc32)[nH]1)C(C)C")
28
>>> recorded_measurement("COC(=O)N[C@H](C(=O)N1CCC[C@H]1c1ncc(-c2ccc3c(c2)cc2n3C(c3cccc(OC(F)(F)F)c3)Oc3cc(-c4cnc([C@@H]5C[C@@H](F)CN5C(=O)[C@@H](NC(=O)OC)C(C)C)[nH]4)ccc3-2)[nH]1)C(C)C (some centres undefined)")
48
>>> recorded_measurement("CCCCOc1cccc(C2Oc3cc(-c4cnc([C@@H]5C[C@@H](F)CN5C(=O)[C@@H](NC(=O)OC)C(C)C)[nH]4)cc(F)c3-c3cc4cc(-c5cnc([C@@H]6C[C@@H](F)CN6C(=O)[C@@H](NC(=O)OC)C(C)C)[nH]5)ccc4n32)c1 (some centres undefined)")
126
>>> recorded_measurement("COC(=O)N[C@H](C(=O)N1CCC[C@H]1c1ncc(-c2ccc3c(c2)OC(c2cc(Cl)cc(OC)c2)n2c-3cc3cc(-c4cnc([C@@H]5CCCN5C(=O)[C@@H](NC(=O)OC)C(C)C)[nH]4)ccc32)[nH]1)C(C)C (mixture of isomers)")
202
>>> recorded_measurement("COC(=O)N[C@H](C(=O)N1CCC[C@H]1c1ncc(-c2ccc3c(c2)OCn2c-3c(C3CC3)c3cc(-c4cnc([C@@H]5CCCN5C(=O)[C@@H](NC(=O)OC)C(C)C)[nH]4)ccc32)[nH]1)C(C)C")
122
>>> recorded_measurement("COC(=O)N[C@H](C(=O)N1CCC[C@H]1c1ncc(-c2cc(F)c3c(c2)OC(c2cc(OC)cc(OC)c2)n2c-3cc3cc(-c4cnc([C@@H]5CCCN5C(=O)[C@@H](NC(=O)OC)C(C)C)[nH]4)ccc32)[nH]1)C(C)C (some centres undefined)")
0.6

compound COC(=O)N[C@H](C(=O)N1CCC[C@H]1c1ncc(-c2ccc3c(c2)OC(c2ccc(OC)cc2)n2c-3cc3cc(-c4cnc([C@@H]5CCCN5C(=O)[C@@H](NC(=O)OC)C(C)C)[nH]4)ccc32)[nH]1)C(C)C (some centres undefined) , EC90 observed: 15

compound COC(=O)N[C@H](C(=O)N1CCC[C@H]1c1ncc(-c2cc(F)c3c(c2)OC(c2ccccc2)n2c-3cc3cc(-c4cnc([C@@H]5C[C@@H](F)CN5C(=O)[C@@H](NC(=O)OC)C(C)C)[nH]4)ccc32)[nH]1)C(C)C (mixture of isomers) , EC90 observed: 32
